B1: glmS ribozyme (parent)
chain: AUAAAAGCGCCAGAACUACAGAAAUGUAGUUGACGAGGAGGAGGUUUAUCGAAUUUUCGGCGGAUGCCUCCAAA

variants of: B1; assay: self-cleavage kobs at 160 uM GlcN6P; higher = faster cleavage; RNA array; details: with glucosamine-6-phosphate
Fewer inactive variants are shown than the library holds.
I'd be grateful if you could share measured self-cleavage kobs at 160 uM GlcN6P for these entries.

Dear colleague, I am looking for the recorded self-cleavage kobs at 160 uM GlcN6P of the following variant: A39U A42G C67U
0.000536 s⁻¹

self-cleavage kobs at 160 uM GlcN6P lookup needed for C8U A42C , thanks.
< 1e-05 s⁻¹

Could you share which self-cleavage kobs at 160 uM GlcN6P value was measured for U49G G51U ?
< 1e-05 s⁻¹

I have this variant here, U30G G41U , and I need its recorded self-cleavage kobs at 160 uM GlcN6P.
3.73e-05 s⁻¹

Quick one: self-cleavage kobs at 160 uM GlcN6P of C16A C67U ?
6.4e-05 s⁻¹

For A15U U47A , what is its reported self-cleavage kobs at 160 uM GlcN6P?
0.000273 s⁻¹

Which self-cleavage kobs at 160 uM GlcN6P value is on record for A15C U56A G63C C70A ?
5.41e-05 s⁻¹

self-cleavage kobs at 160 uM GlcN6P for G13U U31A A39C C68U U69A ?
< 1e-05 s⁻¹

Which value of self-cleavage kobs at 160 uM GlcN6P has been reported for A36U C50A in the records?
< 1e-05 s⁻¹

Quick check: self-cleavage kobs at 160 uM GlcN6P of A33G G44C ?
< 1e-05 s⁻¹

What does the record list as self-cleavage kobs at 160 uM GlcN6P for A12U G37C ?
< 1e-05 s⁻¹

Request the reported self-cleavage kobs at 160 uM GlcN6P associated with A52G C61U C68G
0.000141 s⁻¹

Which value of self-cleavage kobs at 160 uM GlcN6P has been reported for A12U C34G G40C C50A in the records?
< 1e-05 s⁻¹

# lookup: self-cleavage kobs at 160 uM GlcN6P of C50A A52C
< 1e-05 s⁻¹

Which self-cleavage kobs at 160 uM GlcN6P value belongs to G29U U54A C67G ?
5.68e-05 s⁻¹

So what does the record say about self-cleavage kobs at 160 uM GlcN6P for A39C G66C ?
7.03e-05 s⁻¹

Record request: self-cleavage kobs at 160 uM GlcN6P value, item G37A U56A
4.84e-05 s⁻¹

# self-cleavage kobs at 160 uM GlcN6P lookup, item U54A U69C
0.000323 s⁻¹

Which self-cleavage kobs at 160 uM GlcN6P is reported for this variant? A52G G60U
< 1e-05 s⁻¹

Need self-cleavage kobs at 160 uM GlcN6P of C34A U55A , thanks.
< 1e-05 s⁻¹

Which self-cleavage kobs at 160 uM GlcN6P value is on record for G38U A52U ?
< 1e-05 s⁻¹

Suppose we examine the variant C50G G60C U69A ; what self-cleavage kobs at 160 uM GlcN6P value has been reported?
0.00016 s⁻¹

For A14C C34A , what is its reported self-cleavage kobs at 160 uM GlcN6P?
< 1e-05 s⁻¹

Consider the variant C11U A36C and give its measured self-cleavage kobs at 160 uM GlcN6P.
< 1e-05 s⁻¹

I have this variant here, G44C U45C , and I need its recorded self-cleavage kobs at 160 uM GlcN6P.
< 1e-05 s⁻¹

Suppose we examine the variant A6U C16U ; what self-cleavage kobs at 160 uM GlcN6P value has been reported?
2.54e-05 s⁻¹

Fill blank: measured self-cleavage kobs at 160 uM GlcN6P of the variant A15U A64U is ____.
< 1e-05 s⁻¹

GET /values?readout=self-cleavage kobs at 160 uM GlcN6P&item= G29A C70U
0.000201 s⁻¹

Which self-cleavage kobs at 160 uM GlcN6P value belongs to A12C G29A ?
0.000322 s⁻¹

What does the data say about its self-cleavage kobs at 160 uM GlcN6P? Entry: U55G C71U
0.00128 s⁻¹

What does the record list as self-cleavage kobs at 160 uM GlcN6P for C10U G43C U47C A52C U65C G66A C70G ?
< 1e-05 s⁻¹

Which self-cleavage kobs at 160 uM GlcN6P is listed for A12U C67A ?
0.000983 s⁻¹

Suppose we examine the variant A36C G41U ; what self-cleavage kobs at 160 uM GlcN6P value has been reported?
< 1e-05 s⁻¹

# self-cleavage kobs at 160 uM GlcN6P lookup, item G35A G38A A39G G63C C67U
< 1e-05 s⁻¹

Entry G9A U30G G37U has what self-cleavage kobs at 160 uM GlcN6P?
< 1e-05 s⁻¹

Tell me the measured self-cleavage kobs at 160 uM GlcN6P of C8A U46A , please.
< 1e-05 s⁻¹

Given the entry U54A G66U , report its measured self-cleavage kobs at 160 uM GlcN6P.
0.000194 s⁻¹

# get_value(readout='self-cleavage kobs at 160 uM GlcN6P', item= C71U )
0.00366 s⁻¹

Quick one: self-cleavage kobs at 160 uM GlcN6P of A52G G60A ?
< 1e-05 s⁻¹

Form field: reported self-cleavage kobs at 160 uM GlcN6P of G32A C71A
5.89e-05 s⁻¹

Data request, read-out self-cleavage kobs at 160 uM GlcN6P, for U31C C70U
0.000343 s⁻¹

Which self-cleavage kobs at 160 uM GlcN6P is listed for A39G G41U ?
0.000143 s⁻¹

Query: self-cleavage kobs at 160 uM GlcN6P; subject: A6G G43U U65C
< 1e-05 s⁻¹

I have this variant here, G32C A64C , and I need its recorded self-cleavage kobs at 160 uM GlcN6P.
< 1e-05 s⁻¹

// returns reported self-cleavage kobs at 160 uM GlcN6P for input G26U C70U
0.00126 s⁻¹

Given the variant A48C U69G , what is its reported self-cleavage kobs at 160 uM GlcN6P?
< 1e-05 s⁻¹

Give its self-cleavage kobs at 160 uM GlcN6P value. Item: C16A G41C
< 1e-05 s⁻¹

Fill blank: measured self-cleavage kobs at 160 uM GlcN6P of the variant G35U G41U G43A is ____.
< 1e-05 s⁻¹

Fill in: self-cleavage kobs at 160 uM GlcN6P of A14G C68G is ___
4.57e-05 s⁻¹

Can you share its self-cleavage kobs at 160 uM GlcN6P? I mean this variant: U31A G40A
0.000266 s⁻¹

May I ask what self-cleavage kobs at 160 uM GlcN6P has been recorded for U65G G66A ?
0.000131 s⁻¹

Requested read-out: self-cleavage kobs at 160 uM GlcN6P. Entry: C8U C34G G41A
< 1e-05 s⁻¹

Please report the recorded self-cleavage kobs at 160 uM GlcN6P for C50G G60U .
4.83e-05 s⁻¹

For the variant G38U A53C , what self-cleavage kobs at 160 uM GlcN6P is on record?
< 1e-05 s⁻¹

Which value of self-cleavage kobs at 160 uM GlcN6P has been reported for U31G G44U G51U in the records?
< 1e-05 s⁻¹

Which value of self-cleavage kobs at 160 uM GlcN6P has been reported for C11U A15G C34U U57C C71A in the records?
< 1e-05 s⁻¹

Recorded self-cleavage kobs at 160 uM GlcN6P of U54A C58A , please.
2.83e-05 s⁻¹

Looking for the measured self-cleavage kobs at 160 uM GlcN6P of A15U U46A , can you help?
3.16e-05 s⁻¹

Fill blank: measured self-cleavage kobs at 160 uM GlcN6P of the variant G44C C71A is ____.
< 1e-05 s⁻¹

Endpoint output: self-cleavage kobs at 160 uM GlcN6P of G40C G63A . Value?
< 1e-05 s⁻¹

Which self-cleavage kobs at 160 uM GlcN6P value is on record for C10A G35C C67U ?
< 1e-05 s⁻¹

Give its self-cleavage kobs at 160 uM GlcN6P value. Item: G9C G37U
< 1e-05 s⁻¹

Look at this variant and give its reported self-cleavage kobs at 160 uM GlcN6P. A36C U46A
< 1e-05 s⁻¹

Field request: self-cleavage kobs at 160 uM GlcN6P | item: C8G G63A C70G
< 1e-05 s⁻¹

Look at this variant and give its reported self-cleavage kobs at 160 uM GlcN6P. A14C U30G G41C A53G
< 1e-05 s⁻¹

Quick check: self-cleavage kobs at 160 uM GlcN6P of U30G G62A ?
< 1e-05 s⁻¹

Returns the measured self-cleavage kobs at 160 uM GlcN6P for the input variant. Input: A39C G59A
< 1e-05 s⁻¹

Sample A15U G59C — what was its self-cleavage kobs at 160 uM GlcN6P?
< 1e-05 s⁻¹

Returns the measured self-cleavage kobs at 160 uM GlcN6P for the input variant. Input: A12G G38U A52U A64U
< 1e-05 s⁻¹

What value of self-cleavage kobs at 160 uM GlcN6P has been recorded for this entry: G9U G13C G40A G44U G63U
< 1e-05 s⁻¹

# self-cleavage kobs at 160 uM GlcN6P lookup, item A6U C58U
< 1e-05 s⁻¹

Query (variant): A48G C68U ; field requested: self-cleavage kobs at 160 uM GlcN6P
< 1e-05 s⁻¹

Fill in the blank: the reported self-cleavage kobs at 160 uM GlcN6P of A6G U65C is ____.
< 1e-05 s⁻¹

Requested read-out: self-cleavage kobs at 160 uM GlcN6P. Entry: A6U A12C U49C U65G C67G
< 1e-05 s⁻¹

self-cleavage kobs at 160 uM GlcN6P lookup needed for C11A G59U , thanks.
0.000683 s⁻¹

Can you look up the measured self-cleavage kobs at 160 uM GlcN6P of G43U C58U for me?
< 1e-05 s⁻¹

Consider the variant U49G A64U and give its measured self-cleavage kobs at 160 uM GlcN6P.
< 1e-05 s⁻¹

Given G7U U30G C34G , state its recorded self-cleavage kobs at 160 uM GlcN6P.
< 1e-05 s⁻¹

Which self-cleavage kobs at 160 uM GlcN6P value is on record for U56G C71U ?
0.000762 s⁻¹

What value of self-cleavage kobs at 160 uM GlcN6P has been reported for the following variant? G40A G44U C61A
< 1e-05 s⁻¹

Which value of self-cleavage kobs at 160 uM GlcN6P has been reported for A12U C16U U54A in the records?
0.00397 s⁻¹

Need self-cleavage kobs at 160 uM GlcN6P, item A6U C11A G13U
< 1e-05 s⁻¹

Item under review: G66C C70U . Reported self-cleavage kobs at 160 uM GlcN6P?
0.000178 s⁻¹

Fill in: self-cleavage kobs at 160 uM GlcN6P of A6C G43U is ___
< 1e-05 s⁻¹

Recorded self-cleavage kobs at 160 uM GlcN6P of A12U G44A , please.
8.78e-05 s⁻¹

Consider the variant shown here: G35C U57A What is its recorded self-cleavage kobs at 160 uM GlcN6P?
< 1e-05 s⁻¹

Given the entry G32U A42U , report its measured self-cleavage kobs at 160 uM GlcN6P.
< 1e-05 s⁻¹

Any idea what self-cleavage kobs at 160 uM GlcN6P was measured for G40C G43C ?
< 1e-05 s⁻¹

Name the reported self-cleavage kobs at 160 uM GlcN6P value associated with the variant C34A G38U A53C
< 1e-05 s⁻¹

Reported self-cleavage kobs at 160 uM GlcN6P, variant G51C G60U : ____
< 1e-05 s⁻¹

Query: self-cleavage kobs at 160 uM GlcN6P; subject: C10G G32C A52U
< 1e-05 s⁻¹

Each recorded value in this set is attributed to the supplement of paper PMC7125110.
